All values here come from the supplement of paper PMC11196671.

assay: MHET released, HPLC; higher = more MHET released; extreme values may be limits of the assay; conditions: PET substrate: aFilm; 70 °C; pH 8.5; 24 h
assay endpoint: log10(MHET released) (log10 of the value in mM)
Values reflect log10 of reported MHET released (mM).

INSERT INTO results (ordered_residues, result_number) VALUES
  ('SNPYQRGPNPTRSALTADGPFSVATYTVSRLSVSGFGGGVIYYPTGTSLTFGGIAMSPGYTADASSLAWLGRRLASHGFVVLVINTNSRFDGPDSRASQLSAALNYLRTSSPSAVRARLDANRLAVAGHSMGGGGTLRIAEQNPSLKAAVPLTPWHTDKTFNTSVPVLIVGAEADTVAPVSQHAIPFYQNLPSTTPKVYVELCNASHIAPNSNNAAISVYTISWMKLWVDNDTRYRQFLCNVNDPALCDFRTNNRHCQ [LCC-ICCG]', -0.66),
  ('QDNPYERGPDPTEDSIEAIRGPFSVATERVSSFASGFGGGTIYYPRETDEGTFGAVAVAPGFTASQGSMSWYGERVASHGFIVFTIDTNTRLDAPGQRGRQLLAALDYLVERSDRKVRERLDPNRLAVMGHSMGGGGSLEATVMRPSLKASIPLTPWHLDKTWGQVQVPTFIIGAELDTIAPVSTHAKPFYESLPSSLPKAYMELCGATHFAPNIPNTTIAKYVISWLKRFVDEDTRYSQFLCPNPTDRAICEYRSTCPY [Cut190*SS]', -2.13),
  ('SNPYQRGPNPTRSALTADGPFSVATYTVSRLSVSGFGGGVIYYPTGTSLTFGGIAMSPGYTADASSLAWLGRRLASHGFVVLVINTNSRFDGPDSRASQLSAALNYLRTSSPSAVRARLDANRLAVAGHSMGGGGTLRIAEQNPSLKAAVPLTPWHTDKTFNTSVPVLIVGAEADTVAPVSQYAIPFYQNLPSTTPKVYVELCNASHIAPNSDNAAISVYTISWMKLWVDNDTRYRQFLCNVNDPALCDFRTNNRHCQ [LCC-A2]', -0.60),
  ('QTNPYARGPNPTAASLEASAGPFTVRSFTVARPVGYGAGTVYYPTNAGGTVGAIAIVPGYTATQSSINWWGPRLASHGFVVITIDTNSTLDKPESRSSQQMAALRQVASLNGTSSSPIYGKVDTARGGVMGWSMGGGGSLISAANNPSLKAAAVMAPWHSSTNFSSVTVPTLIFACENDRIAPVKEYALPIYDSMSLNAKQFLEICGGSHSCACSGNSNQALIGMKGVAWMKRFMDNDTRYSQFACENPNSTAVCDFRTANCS [HotPETase]', -0.92),
  ('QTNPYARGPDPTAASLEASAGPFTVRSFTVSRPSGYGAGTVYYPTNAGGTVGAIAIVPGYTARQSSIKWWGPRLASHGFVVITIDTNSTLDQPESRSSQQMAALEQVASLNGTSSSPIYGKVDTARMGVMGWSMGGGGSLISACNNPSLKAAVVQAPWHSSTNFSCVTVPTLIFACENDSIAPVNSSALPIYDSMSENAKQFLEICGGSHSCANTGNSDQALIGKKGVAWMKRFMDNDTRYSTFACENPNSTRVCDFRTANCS [Z1-PETase]', -2.25);

Now for a further sequence.
Query: Which log10(MHET released) value belongs to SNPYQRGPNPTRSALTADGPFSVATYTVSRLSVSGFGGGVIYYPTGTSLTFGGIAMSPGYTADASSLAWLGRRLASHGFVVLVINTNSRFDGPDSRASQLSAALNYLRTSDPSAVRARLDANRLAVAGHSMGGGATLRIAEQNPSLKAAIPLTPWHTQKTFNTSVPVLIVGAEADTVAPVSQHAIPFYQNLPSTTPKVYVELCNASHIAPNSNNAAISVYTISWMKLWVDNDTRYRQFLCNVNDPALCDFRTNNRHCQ [LCC-ICCG DAQI] ?
Reply: -0.68
